System: HS 578T
Assay: NCI cytotoxicity screen
Type: cell-based, human
Conditions: 10.0 μM one dose; HS-578T
Decision: GI % >= 20% yields fulfilled, all other cases yield not fulfilled.

Answered examples (6):
{"columns": ["chem_smiles", "assayed_system", "label"],
 "data": [
  ["COc1cc(C=NNC(=O)CSc2nc3ccccc3c(=O)n2Cc2ccc(S(N)(=O)=O)cc2)cc(OC)c1OC", "HS 578T", "not fulfilled"],
  ["COc1cc(OC)cc(C(C)=NNC(=O)CSc2nc3ccccc3c(=O)n2Cc2ccc(S(N)(=O)=O)cc2)c1", "HS 578T", "not fulfilled"],
  ["NS(=O)(=O)c1ccc(Cn2c(SCC(=O)NN=Cc3ccccc3O)nc3ccccc3c2=O)cc1", "HS 578T", "fulfilled"],
  ["NS(=O)(=O)c1ccc(Cn2c(SCC(=O)NN=Cc3ccccc3)nc3ccccc3c2=O)cc1", "HS 578T", "not fulfilled"],
  ["Cc1ccc(C=NNC(=O)CSc2nc3ccccc3c(=O)n2Cc2ccc(S(N)(=O)=O)cc2)cc1", "HS 578T", "not fulfilled"],
  ["CCN(CC)c1ccc(C=NNC(=O)CSc2nc3ccccc3c(=O)n2Cc2ccc(S(N)(=O)=O)cc2)c(O)c1", "HS 578T", "fulfilled"]
]}

q: Has COc1cccc(C(C)=NNC(=O)CSc2nc3ccccc3c(=O)n2Cc2ccc(S(N)(=O)=O)cc2)c1 a recorded GI % greater than or equal to 20%?
a: not fulfilled

---

The compounds listed here are annotated with their IC50.
Sequence of the target: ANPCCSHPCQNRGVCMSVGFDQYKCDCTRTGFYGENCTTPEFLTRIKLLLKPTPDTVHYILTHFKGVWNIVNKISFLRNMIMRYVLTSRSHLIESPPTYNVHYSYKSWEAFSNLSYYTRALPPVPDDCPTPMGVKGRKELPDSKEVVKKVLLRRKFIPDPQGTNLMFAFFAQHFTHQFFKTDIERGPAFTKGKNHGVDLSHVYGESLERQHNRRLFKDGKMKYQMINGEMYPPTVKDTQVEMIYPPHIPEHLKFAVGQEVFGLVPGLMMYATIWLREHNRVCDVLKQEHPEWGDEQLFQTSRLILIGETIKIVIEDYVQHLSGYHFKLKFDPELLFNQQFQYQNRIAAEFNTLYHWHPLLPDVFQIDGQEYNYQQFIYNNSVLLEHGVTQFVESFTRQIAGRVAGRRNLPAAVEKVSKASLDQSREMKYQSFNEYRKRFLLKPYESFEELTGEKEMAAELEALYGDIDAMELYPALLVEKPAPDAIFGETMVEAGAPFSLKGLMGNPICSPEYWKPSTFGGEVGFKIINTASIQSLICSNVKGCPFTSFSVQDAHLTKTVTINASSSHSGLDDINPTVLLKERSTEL
Your answer should be a plain number; it is taken to be in µM.

{"columns": ["compound", "unit_text", "readout_number"],
 "data": [
  ["CCN(CC)c1ccc(C=NNC(=O)CSc2nc3ccccc3c(=O)n2Cc2ccc(S(N)(=O)=O)cc2)c(O)c1 [Compound 5]", "µM", 3.32],
  ["Cc1ccc(C=NNC(=O)CSc2nc3ccccc3c(=O)n2Cc2ccc(S(N)(=O)=O)cc2)cc1 [Compound 9]", "µM", 15.4],
  ["COc1cc(OC)cc(C(C)=NNC(=O)CSc2nc3ccccc3c(=O)n2Cc2ccc(S(N)(=O)=O)cc2)c1 [Compound 12]", "µM", 21.3],
  ["NS(=O)(=O)c1ccc(Cn2c(SCC(=O)NN=Cc3ccccc3O)nc3ccccc3c2=O)cc1 [Compound 6]", "µM", 4.47]
]}

Please find the next compound below.
q: Value lookup for IC50; key = COc1cccc(C=NNC(=O)CSc2nc3ccccc3c(=O)n2Cc2ccc(S(N)(=O)=O)cc2)c1 [Compound 7]
a: 50.5

Sourced from paper PMC11702208
